- System: CAKI-1 renal
- assay_name: NCI tumour cell line growth inhibition, 48 h
quantity_measured: TGI (µM)
Give the value in µM but do not write µM after it.

Solved cases below.
molecule | test_target | unit_annotation | TGI
CCOC(=O)C(SCCO)C(C(=O)OCC)n1cnc2c(N)ncnc21 (stereo not given) | CAKI-1 renal | µM | 15.1
N=c1oc2ccc([N+](=O)[O-])cc2cc1C(=O)NCc1ccccc1 | CAKI-1 renal | µM | 36.2
COc1cc(Nc2nccc(Nc3ccc4c(C)[nH]nc4c3)n2)cc(OC)c1OC | CAKI-1 renal | µM | 4.62

Now look at this one.
Sure, the documented TGI for COCC(N=CN1CCCc2ccccc2[C@@H]1CCCCl)C(C)(C)C (stereo not given in full) is 31.9
